System: MDA-MB-436 cells
Assay: Cell proliferation assay (MDA-MB-436)
Format: cell-based
Details: Homo sapiens, 168 h, 7 days
Procedure: Cells are counted, diluted to desired density and 40 μL of cell suspension is added into each 384-well tissue-culture treated plates. Plates are incubated in Tissue Culture incubator at 37° C./5% C02 overnight. Next day, 40 nl test compounds that are prepared from source plates are transferred to the seeded cells from overnight. Plates are incubated at 37° C./5% C02 for a total of 7 days. […]
pIC50: −log10 of the molar value.
Could you please report measured pIC50 for the items listed next?

*Q* Please report pIC50 for the following molecule: CC(C)(C)C(=O)N1CCC[C@H](c2cccc(C(=O)N[C@@H](C(=O)N3CCC(OC4CCN(CC(=O)N5CCN(C(=O)c6cc(Cc7n[nH]c(=O)c8ccccc78)ccc6F)CC5)CC4)CC3)C3CCCCC3)c2F)C1 [Compound I-910]
*A* > 8.00

*Q* Output measured pIC50 for this item: CC1(OC2CCN(CC(=O)N3CCN(C(=O)c4cc(Cc5n[nH]c(=O)c6ccccc56)ccc4F)CC3)CC2)CCN(C(=O)[C@H](NC(=O)c2cccc(C3CCCN(C(=O)C4(C)CC4)C3)c2F)C2CCCCC2)CC1 (stereo partly shown) [Compound I-893]
*A* 7.00 to 8.00

*Q* State, in one line, measured pIC50 of O=C(N[C@@H](C(=O)N1CCN(CC(=O)N2CCN(C(=O)c3cc(Cc4n[nH]c(=O)c5ccccc45)ccc3F)CC2)CC1)C1CCCCC1)c1cccc(C2CCCN(C(=O)C3CC3)C2)c1F (stereo partly shown) [Compound I-454]
*A* 6.00 to 7.00

*Q* Identify the reported pIC50 for the following entry. COC12CCC(CNCC(=O)N3CCCC(c4cccc(C(=O)N[C@@H](C(=O)N5CCN(CC6CCN(CC(=O)N7CCN(C(=O)c8cc(Cc9n[nH]c(=O)c%10ccccc9%10)ccc8F)CC7)CC6)CC5)C5CCCCC5)c4)C3)(CC1)OC2 (stereo partly shown) [Compound I-157]
*A* 7.00 to 8.00

*Q* Consider the molecule CC1(C)CC(c2ccc(C(=O)N[C@@H](C(=O)N3CCC(OC4CCN(CC(=O)N5CCN(C(=O)c6cc(Cc7n[nH]c(=O)c8ccccc78)ccc6F)CC5)CC4)CC3)C3CCCCC3)c(F)c2)CCN1C(=O)C1CC1 (stereo partly shown) [Compound I-743] and give its recorded pIC50.
*A* > 8.00

*Q* Entry O=C(CNC1CC1)N1CCCC(c2cccc(C(=O)N3CCN(CC45CCC(C(=O)N6CCN(C(=O)c7cc(Cc8n[nH]c(=O)c9ccccc89)ccc7F)CC6)(CC4)CO5)CC3)c2)C1 (stereo not shown) [Compound I-377] needs its pIC50 filled in; supply it.
*A* > 8.00

*Q* State, in one line, measured pIC50 of CC1(C(=O)N2CCCC(c3cccc(C(=O)N[C@@H](C(=O)N4CCC(OC5CCN(CC(=O)N6CCN(C(=O)c7cc(Cc8n[nH]c(=O)c9ccccc89)ccc7F)CC6)CC5)CC4)C4CCCCC4)c3F)C2)CC1 (stereo partly shown) [Compound I-660]
*A* > 8.00

*Q* Identify measured pIC50 corresponding to O=C(CN1CCN(CC2CCN(C(=O)c3c(F)cc(-c4ccccn4)cc3F)CC2)CC1)N1CCN(C(=O)c2cc(Cc3n[nH]c(=O)c4ccccc34)ccc2F)CC1 [Compound I-769]
*A* > 8.00

*Q* Give recorded pIC50. O=C(c1cc(Cc2n[nH]c(=O)c3ccccc23)ccc1F)N1CCN(C(=O)C2CC2)CC1 [Olaparib, reference compound]
*A* 7.00 to 8.00

*Q* Identify measured pIC50 associated with O=C(N[C@@H](C(=O)N1CCN(CC2CCN(CC(=O)N3CCN(C(=O)c4cc(Cc5n[nH]c(=O)c6ccccc56)ccc4F)CC3)CC2)CC1)C1CCCCC1)c1cccc([C@@H]2CCCN(C(=O)CNC3CC3)C2)c1 [Compound I-365]
*A* 7.00 to 8.00
